These records show MIC for S. aureus MS15027.
Report only the number, with the unit mg/L understood.

[[record]]
compound = "CCC(=O)O[C@@H]1CC(=O)O[C@H](C)C/C=C/C=C/[C@H](O)[C@H](C)C[C@H](CC=O)[C@H](O[C@@H]2O[C@H](C)[C@@H](O[C@H]3C[C@@](C)(O)[C@@H](OC(=O)CC)[C@H](C)O3)[C@H](N(C)C)[C@H]2O)[C@H]1OC [MDM, midecamycin A1, reference compound]"
metric_name = "MIC"
unit_descriptor = "mg/L"
recorded_value = 0.78

[[record]]
compound = "CCCCO[C@H]1[C@H](C)O[C@@H](O[C@H]2[C@H](N(C)C)[C@@H](O)[C@H](O[C@H]3[C@@H](CC=O)C[C@@H](C)[C@@H](O)/C=C/C=C/C[C@@H](C)OC(=O)C[C@@H](O)[C@@H]3OC)O[C@@H]2C)C[C@@]1(C)OC"
metric_name = "MIC"
unit_descriptor = "mg/L"
recorded_value = 0.39

[[record]]
compound = "CCCO[C@H]1[C@H](C)O[C@@H](O[C@H]2[C@H](N(C)C)[C@@H](O)[C@H](O[C@H]3[C@@H](CC=O)C[C@@H](C)[C@@H](O)/C=C/C=C/C[C@@H](C)OC(=O)C[C@@H](O)[C@@H]3OC)O[C@@H]2C)C[C@@]1(C)OC"
metric_name = "MIC"
unit_descriptor = "mg/L"
recorded_value = 0.39

[[record]]
compound = "CCO[C@]1(C)C[C@H](O[C@H]2[C@H](N(C)C)[C@@H](O)[C@H](O[C@H]3[C@@H](CC=O)C[C@@H](C)[C@@H](O)/C=C/C=C/C[C@@H](C)OC(=O)C[C@@H](O)[C@@H]3OC)O[C@@H]2C)O[C@@H](C)[C@@H]1OCCC(C)C"
metric_name = "MIC"
unit_descriptor = "mg/L"
recorded_value = 0.39

[[record]]
compound = "CCCO[C@]1(C)C[C@H](O[C@H]2[C@H](N(C)C)[C@@H](O)[C@H](O[C@H]3[C@@H](CC=O)C[C@@H](C)[C@@H](O)/C=C/C=C/C[C@@H](C)OC(=O)C[C@@H](O)[C@@H]3OC)O[C@@H]2C)O[C@@H](C)[C@@H]1OCCC(C)C"
metric_name = "MIC"
unit_descriptor = "mg/L"
recorded_value = 0.39


--- query ---
Given CCC(=O)O[C@H]1[C@H](C)O[C@@H](O[C@H]2[C@H](N(C)C)[C@@H](O)[C@H](O[C@H]3[C@@H](CC=O)C[C@@H](C)[C@@H](O)/C=C/C=C/C[C@@H](C)OC(=O)C[C@@H](O)[C@@H]3OC)O[C@@H]2C)C[C@@]1(C)O [LM-A7, leucomycin A7, reference compound] , state its recorded MIC.
0.39

###

S. aureus MS15027 MIC data
Write the numeric value and append its unit.

[[record]]
smiles = "CCCCCO[C@H]1[C@H](C)O[C@@H](O[C@H]2[C@H](N(C)C)[C@@H](O)[C@H](O[C@H]3[C@@H](CC=O)C[C@@H](C)[C@@H](O)/C=C/C=C/C[C@@H](C)OC(=O)C[C@@H](O)[C@@H]3OC)O[C@@H]2C)C[C@@]1(C)OC"
recorded_value = "0.39 µg/mL"

[[record]]
smiles = "CO[C@@H]1[C@@H](O[C@@H]2O[C@H](C)[C@@H](O[C@H]3C[C@@](C)(OC)[C@@H](OCCC(C)C)[C@H](C)O3)[C@H](N(C)C)[C@H]2O)[C@@H](CC=O)C[C@@H](C)[C@@H](O)/C=C/C=C/C[C@@H](C)OC(=O)C[C@H]1O"
recorded_value = "0.39 µg/mL"


Reported MIC for `CCCCCCO[C@H]1[C@H](C)O[C@@H](O[C@H]2[C@H](N(C)C)[C@@H](O)[C@H](O[C@H]3[C@@H](CC=O)C[C@@H](C)[C@@H](O)/C=C/C=C/C[C@@H](C)OC(=O)C[C@@H](OC(=O)CC)[C@@H]3OC)O[C@@H]2C)C[C@@]1(C)OC` : what is it?
1.56 µg/mL

Try this compound next: `CO[C@@H]1[C@@H](O[C@@H]2O[C@H](C)[C@@H](O[C@H]3C[C@@](C)(OC)[C@@H](OCc4ccccc4)[C@H](C)O3)[C@H](N(C)C)[C@H]2O)[C@@H](CC=O)C[C@@H](C)[C@@H](O)/C=C/C=C/C[C@@H](C)OC(=O)C[C@H]1O`
0.2 µg/mL

###

assay: recovery in urine after oral administration to mice, bioassay; format: in vivo; settings: mouse, 200 mg/kg oral (compound (3)), urine 4 and 24 hours
metric-name: dose excreted at 24 h

Endpoint output: dose excreted at 24 h of CCC(=O)O[C@@H]1CC(=O)O[C@H](C)C/C=C/C=C/[C@H](OC(C)=O)[C@H](C)C[C@H](CC=O)[C@H](O[C@@H]2O[C@H](C)[C@@H](O[C@H]3C[C@@](C)(OC(C)=O)[C@@H](OC(=O)CC)[C@H](C)O3)[C@H](N(C)C)[C@H]2O)[C@H]1OC [MOM, miokamycin, reference compound] . Value?
< 2%

Same for CCCC(=O)O[C@H]1[C@H](C)O[C@@H](O[C@H]2[C@H](N(C)C)[C@@H](O)[C@H](O[C@H]3[C@@H](CC=O)C[C@@H](C)[C@@H](O)/C=C/C=C/C[C@@H](C)OC(=O)C[C@@H](O)[C@@H]3OC)O[C@@H]2C)C[C@@]1(C)OC(=O)CC [RKM, rokitamycin, reference compound]
< 2%

Subsequent entry: CCC(=O)O[C@@H]1CC(=O)O[C@H](C)C/C=C/C=C/[C@H](O)[C@H](C)C[C@H](CC=O)[C@H](O[C@@H]2O[C@H](C)[C@@H](O[C@H]3C[C@@](C)(O)[C@@H](OC(=O)CC)[C@H](C)O3)[C@H](N(C)C)[C@H]2O)[C@H]1OC [MDM, midecamycin A1, reference compound]
< 2%

Would you mind doing CCC(=O)O[C@@H]1CC(=O)O[C@H](C)C/C=C/C=C/[C@H](O)[C@H](C)C[C@H](CC=O)[C@H](O[C@@H]2O[C@H](C)[C@@H](O[C@H]3C[C@@](C)(OC)[C@@H](OCCC(C)C)[C@H](C)O3)[C@H](N(C)C)[C@H]2O)[C@H]1OC [(3)] as well?
20%

###

test system: S. aureus M126; test: MIC, agar plate dilution method; type: cell-based; conditions: Staphylococcus aureus; S. aureus M126; 37° C., 20 hours; read-out: Antimicrobial activity (MIC)
# MIC annotations

These recorded examples may help you get a feel for the data.
[[record]]
compound = "CCC(=O)O[C@@H]1CC(=O)O[C@H](C)C/C=C/C=C/[C@H](O)[C@H](C)C[C@H](CC=O)[C@H](O[C@@H]2O[C@H](C)[C@@H](O[C@H]3C[C@@](C)(OC)[C@@H](OCCC(C)C)[C@H](C)O3)[C@H](N(C)C)[C@H]2O)[C@H]1OC [(3)]"
recorded_value = "> 100 µg/mL"

[[record]]
compound = "CCCCCO[C@H]1[C@H](C)O[C@@H](O[C@H]2[C@H](N(C)C)[C@@H](O)[C@H](O[C@H]3[C@@H](CC=O)C[C@@H](C)[C@@H](O)/C=C/C=C/C[C@@H](C)OC(=O)C[C@@H](O)[C@@H]3OC)O[C@@H]2C)C[C@@]1(C)OC [(11)]"
recorded_value = "> 100 µg/mL"


Now take the following compound into account.
What value of MIC has been recorded for this entry: CO[C@@H]1[C@@H](O[C@@H]2O[C@H](C)[C@@H](O[C@H]3C[C@@](C)(OC)[C@@H](OCc4ccccc4)[C@H](C)O3)[C@H](N(C)C)[C@H]2O)[C@@H](CC=O)C[C@@H](C)[C@@H](O)/C=C/C=C/C[C@@H](C)OC(=O)C[C@H]1O [(16)]
> 100 µg/mL

###

Below are compounds with their MIC as measured on S. Pyogenes Cook.
Form entry: value (µg/mL) — number only.

Please review the following examples before continuing.
[[record]]
smiles = "CO[C@@H]1[C@@H](O[C@@H]2O[C@H](C)[C@@H](O[C@H]3C[C@@](C)(OC)[C@@H](OCc4ccccc4)[C@H](C)O3)[C@H](N(C)C)[C@H]2O)[C@@H](CC=O)C[C@@H](C)[C@@H](O)/C=C/C=C/C[C@@H](C)OC(=O)C[C@H]1O"
target_or_test_system = "S. Pyogenes Cook"
recorded_value = 0.1

[[record]]
smiles = "CCCO[C@H]1[C@H](C)O[C@@H](O[C@H]2[C@H](N(C)C)[C@@H](O)[C@H](O[C@H]3[C@@H](CC=O)C[C@@H](C)[C@@H](O)/C=C/C=C/C[C@@H](C)OC(=O)C[C@@H](O)[C@@H]3OC)O[C@@H]2C)C[C@@]1(C)OC"
target_or_test_system = "S. Pyogenes Cook"
recorded_value = 0.1

[[record]]
smiles = "CO[C@@H]1[C@@H](O[C@@H]2O[C@H](C)[C@@H](O[C@H]3C[C@@](C)(OC)[C@@H](OCCC(C)C)[C@H](C)O3)[C@H](N(C)C)[C@H]2O)[C@@H](CC=O)C[C@@H](C)[C@@H](O)/C=C/C=C/C[C@@H](C)OC(=O)C[C@H]1O"
target_or_test_system = "S. Pyogenes Cook"
recorded_value = 0.05


Then this compound:
Fill blank: measured MIC of the compound `CCCCCCO[C@H]1[C@H](C)O[C@@H](O[C@H]2[C@H](N(C)C)[C@@H](O)[C@H](O[C@H]3[C@@H](CC=O)C[C@@H](C)[C@@H](O)/C=C/C=C/C[C@@H](C)OC(=O)C[C@@H](OC(=O)CC)[C@@H]3OC)O[C@@H]2C)C[C@@]1(C)OC` is ____.
0.2

The reported measurements were obtained from patent US5407918A.
